# System: Clostridium saccharolyticum;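 also: lowest concentration where monotonic median growth AUC falls below 0.75 of drug-free control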
# assay-explanation: IC25 growth inhibition; higher = less potent
Overview of recorded IC25 growth inhibition for various compounds

Some solved entries appear below for comparison.
Nc1nc(=S)c2ncn([C@@H]3O[C@H](CO)[C@@H](O)[C@H]3O)c2[nH]1 : > 40 µM
CN(N=O)C(=O)N[C@@H](C=O)[C@@H](O)[C@H](O)[C@H](O)CO : < 1.25 µM
Clc1ccc(Cn2c(CN3CCCC3)nc3ccccc32)cc1 : ≤ 80 µM
CC(CN1c2ccccc2Sc2ccccc21)N(C)C (stereo not drawn) : > 160 µM
CC(C)(O)c1ccccc1CC[C@@H](SCC1(CC(=O)O)CC1)c1cccc(/C=C/c2ccc3ccc(Cl)cc3n2)c1 : > 10 µM

input: Field request: IC25 growth inhibition | item: CN(C)CCCN1c2ccccc2Sc2ccc(Cl)cc21
output: ≤ 80 µM

input: What do we get for CNCCC(Oc1ccc(C(F)(F)F)cc1)c1ccccc1 (stereo not drawn) ?
output: ≤ 160 µM

input: Same read-out for COCCOC(=O)C1=C(C)NC(C)=C(C(=O)OC/C=C/c2ccccc2)C1c1cccc([N+](=O)[O-])c1 (stereo not drawn) ?
output: > 10 µM

Source listed as the supplement of paper PMC12350171.
